Answer each item with its documented apparent KD of MS2 coat protein.
# Test system: MS2 coat protein
# MEASUREMENT_DESCRIPTION: apparent KD of MS2 coat protein; designed switch direction (-1 OFF switch, 1 ON switch): 1; higher = weaker reporter binding
# TEST_PARAMETERS: input ligand: FMN 200 uM
Give bare numbers, in nM.

sequence_chain="GGUGCCAAAUAAGCCUACAUGAGGAUCACCCAUGUAUGUAGGCAGGAUAUCGUUUGCAAAGCAAACGAGAAGGGCUGAGGCACC [Mat - Same State NG 3 - JL Mod - D53] (Eterna round: R96, puzzle: Same State NG 3)" property_measured="apparent KD of MS2 coat protein" endpoint_result=26.1
sequence_chain="UAUGACUUACAAGGAUAUUAAUGACAUGAGGAUCACCCAUGUGGCUGUGUAUGUUAGAUAAGCAUUAAGAAGGUGUGCGAGUCU [JR_SSNG2_Sub097] (Eterna round: R96, puzzle: Same State NG 2)" property_measured="apparent KD of MS2 coat protein" endpoint_result=30.7

Attention now turns to another entry.
apparent KD of MS2 coat protein for AGCUAUUACGAAGGAUAUUCUGACAUGAGGAUCACCCAUGUCUUCAUGAUUUAUUGUGAUCACGUGGAGAAGGUUGUACUAACA [SameState NG2 #27] (Eterna round: R96, puzzle: Same State NG 2) ? 90.4

----------
# System: MS2 coat protein
# MEASUREMENT_DESCRIPTION: apparent KD of MS2 coat protein; designed switch direction (-1 OFF switch, 1 ON switch): 1; higher = weaker reporter binding
# TEST_PARAMETERS: input ligand: microRNA oligo, concentration not stated
PROPERTY_MEASURED: apparent KD of MS2 coat protein (nM)
One number for each entry, in nM.

sequence_chain="AUUGCUAGCACAGGAUAUCAUGCGAAAAUUGCGUGAGAAGGGUGGACGCUGUCAUUCACGGAGGACAUGAGGAUCACCCAUGUC [SameState NG1 #78] (Eterna round: R96, puzzle: Same State NG 1)" property_measured="apparent KD of MS2 coat protein" endpoint_result=53.4
sequence_chain="GGCUAGGAUAUCUGCAGGAUCACCGCGGAGAAGGAGCUAAGCUAGGAUAUCCGCAGGAUCACCGCGGAGAAGGAGCAUAAUAUA [pwkr ssNG3 DX 2xF5 +2xFMN.15] (Eterna round: R96, puzzle: Same State NG 3)" property_measured="apparent KD of MS2 coat protein" endpoint_result=20.3
sequence_chain="UAAUUAAAGCAAGGAUAUCACGUCGAUUAGACGUGAGAAGGUGCUCCUUACAUGAGGAUCACCCAUGUAUAACAUGAAUAAUUA [SSNG1/10-B2] (Eterna round: R96, puzzle: Same State NG 1)" property_measured="apparent KD of MS2 coat protein" endpoint_result=522

// for each sequence in input: emit apparent KD of MS2 coat protein
1. GUGGUCAGACAUGAGGAUCACCCAUGUGGAAUAAAUAAGGUUUAGGAUAUGGAAUAUAGGAUAUACCAGAAGGGAGGGUUGGUG (Eterna round: R96, puzzle: Same State NG 3)
2. GCUAGGAAUAAAGCCAACAUGAGGAUCACCCAUGUAUGUUGGUAGGAUAUCGUUUGCUUUGCAAACGAGAAGGGCUAACCUAGC [JL SSNG3 1.24] (Eterna round: R96, puzzle: Same State NG 3)
3. UGGCUCAGAGCAGGAUAUAUGUCUCGAGCUUCGGCUCGAGACAUGAGGAUCACCCAUGUAAUAACAUAGAAGGGCUCUGAGCCU [SSNG2/1-B3] (Eterna round: R96, puzzle: Same State NG 2)

[90.4, 64.5, 42]

Would you mind listing apparent KD of MS2 coat protein for each of the following sequences?
1. AGAUCAUGACGAGGAUAUGCAACAUGAGGAUCACCCAUGUAUGUUGCAGGACGCGUACGUCCAAUGUAGAAGGCGUCGUGGUCA [JL SSNG2 1.06] (Eterna round: R96, puzzle: Same State NG 2)
2. UUAUACUCGAGAGGAUAUGCAGAGGAUCACCCUGCAGAAGGCUCGUUAGAGAGGAUAUGCAGAGGAUCACCCUGCAGAAGGCUC [pwkr ssNG DX.24] (Eterna round: R96, puzzle: Same State NG 1)
3. UGGUACAUGGGAGGAUAUCCUCAGGAGACAUGAGGAUCACCCAUGUAAUAUAAGCCGAAAGGCAUGGAGAAGGCCCAUGUACCU [JL SSNG1 3.81] (Eterna round: R96, puzzle: Same State NG 2)
4. UGAAUAGUGAUAGGAUAUACAUGAGGAAUCCUCGUAGAAGGAUCACGACAUGAGGAUCACCCAUGUAGCCGUCCGUAGACGGCA [Mat - Same State NG 1 - JL mod - D59] (Eterna round: R96, puzzle: Same State NG 1)
5. UGGUACAUGGGAGGAUAUCUCAUGGAGACAUGAGGAUCACCCAUGUAGAUCGACGGUAACGUCGGAGAGAAGGCCCAUGUACCU [MOD JL SSNG1 3.70] (Eterna round: R96, puzzle: Same State NG 2)
6. UACUUCAUGUAAGGAUAUGCAGCCGUUUCGGCUGCAGAAGGUACUAUAAUACAUGAGGAUCACCCAUGUCUCUCGCAUUGCGAG [JL SSNG1 1.50] (Eterna round: R96, puzzle: Same State NG 1)

1: 146; 2: 16.1; 3: 150; 4: 66.4; 5: 32.6; 6: 86.2

----------
Provide the recorded apparent KD of MS2 coat protein for the entries that follow.
# Tested on: MS2 coat protein
# MEASUREMENT_DESCRIPTION: apparent KD of MS2 coat protein; designed switch direction (-1 OFF switch, 1 ON switch): 1; higher = weaker reporter binding
# TEST_PARAMETERS: Eterna round: R95; input ligand: microRNA oligo, concentration not stated
Numbers only, in nM.

sequence_chain="UCUUGGUUUUUGCUCGUUUUUUGUGUUGAACAUGAGGAUCACCCAUGUAUUGUACGGUCCAAUUUAAUAAUGGUCCG [JMF 23] (puzzle: Sensor for hsa-mir-208a)" value_unit=nM endpoint_result=14.3

For each listed entry, give its apparent KD of MS2 coat protein.
1. GGUCCAGCCUGAGCUGGACAAAAGCAUGUACAUGAGGAUCACCCAUGUUCAUGUACAAGCUUUUUGCUCGUCUUAUG [salish99_208a_r3_053] (puzzle: Sensor for hsa-mir-208a)
2. GUGUUACAUGAGGAUCACCCAUGUUGUUGUAGAUAAGGAUAUAUGGGAACGAGAGAAAUAAUAGAAGGUAUUAGGC [JR_SS1_Sub060] (puzzle: Same State 1)

[18.1, 77.4]

----------
Give apparent KD of K4 kissing-loop reporter for every item shown.
# Test system: K4 kissing-loop RNA reporter;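 also: bound reporter read as fluorescence of individual clusters on recovered sequencing chips by microscopy, with normalized cluster intensities fitted with a binding model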
# MEASUREMENT_DESCRIPTION: apparent KD of K4 kissing-loop reporter; higher = weaker reporter binding
# TEST_PARAMETERS: Eterna round: R107; input ligand: none
Answers are plain numbers, in nM.

sequence_chain="CCACCUCCAGAAGGAUAUAGUGUAUCAGAUUCACUCGAGUGCCUUAAACUAAGGAGUGAUGUUCCGCUAGAAGGUCUCGUAGGCA [theeternabot_exclusion_KL_FMN_B_45]" property_measured="apparent KD of K4 kissing-loop reporter" endpoint_result=149
sequence_chain="UACAGGGAUAGUGAUGUUAUCCCAUGUGAUACCAGUGUCAUCCAACACCCUUGGCAGCAUACGGGCAGUGAUGUUGUUCUUGGUA [#17 K4 Theophylline A Exclusion]" property_measured="apparent KD of K4 kissing-loop reporter" endpoint_result=91.6
sequence_chain="UUUCUACCGGGAAGGAGCGUGAAUGAUAAUGGAUAUAGUGAUGUUAUAUAUACGAACGAAUCGCAGGUAGGUCGCCCGGAUGACU [SSArgB.T]" property_measured="apparent KD of K4 kissing-loop reporter" endpoint_result=724
sequence_chain="CAGAACUUGUAUACAGGGCAUGCCAGAGAUACCAGUCAAAUGGAAGGCCCUUGGCAGCUCAGGCGAGUGAUGUUCGCAGGCUGAC [Exclusion Theophylline A GF 19]" property_measured="apparent KD of K4 kissing-loop reporter" endpoint_result=116
sequence_chain="GGUUUAUAGGAGGAUACCAGUACGAAUAAAGUACAUUAAUAGUAGAGUGAUGUUCUAAAGUACCCUUGGCAGCUUAGAUUAAGUU [ExTheophylB.H]" property_measured="apparent KD of K4 kissing-loop reporter" endpoint_result=116

Working through the 3 sequences below one at a time, give apparent KD of K4 kissing-loop reporter for each.
1. GGCACUUUUGGUAGGAACCAUCUACCUCUAUAGGAUAUGCCGAAAGGCAGAAGGAUAGACCUACAGAGUGAUGUUCUGCGUGCCU
2. UAUUUAGUGACGGCCGCCACUAUGGUGAUUUAUUUGUUUGAGUGAUGUUUUGAUGUUUGAUUUUGUAGGACCGGGUUAUGUGUUG [yyycmullin]
3. AGACUUCACCGAAGGAGCGACGUGGCCUAGUGAUGUUAGGUACGAGAGAAAUCUCGUAUACGUCAGGUAGGUCGCGGUGAAGUCA [Omei KL Arginine B SS C v8]

330
818
997
